These measurements were taken from BindingDB's records for patent US20240360157.

System: Tyrosine-protein kinase JAK1 (Homo sapiens) | Read-out: IC50
Sequence (P23458 whole entry): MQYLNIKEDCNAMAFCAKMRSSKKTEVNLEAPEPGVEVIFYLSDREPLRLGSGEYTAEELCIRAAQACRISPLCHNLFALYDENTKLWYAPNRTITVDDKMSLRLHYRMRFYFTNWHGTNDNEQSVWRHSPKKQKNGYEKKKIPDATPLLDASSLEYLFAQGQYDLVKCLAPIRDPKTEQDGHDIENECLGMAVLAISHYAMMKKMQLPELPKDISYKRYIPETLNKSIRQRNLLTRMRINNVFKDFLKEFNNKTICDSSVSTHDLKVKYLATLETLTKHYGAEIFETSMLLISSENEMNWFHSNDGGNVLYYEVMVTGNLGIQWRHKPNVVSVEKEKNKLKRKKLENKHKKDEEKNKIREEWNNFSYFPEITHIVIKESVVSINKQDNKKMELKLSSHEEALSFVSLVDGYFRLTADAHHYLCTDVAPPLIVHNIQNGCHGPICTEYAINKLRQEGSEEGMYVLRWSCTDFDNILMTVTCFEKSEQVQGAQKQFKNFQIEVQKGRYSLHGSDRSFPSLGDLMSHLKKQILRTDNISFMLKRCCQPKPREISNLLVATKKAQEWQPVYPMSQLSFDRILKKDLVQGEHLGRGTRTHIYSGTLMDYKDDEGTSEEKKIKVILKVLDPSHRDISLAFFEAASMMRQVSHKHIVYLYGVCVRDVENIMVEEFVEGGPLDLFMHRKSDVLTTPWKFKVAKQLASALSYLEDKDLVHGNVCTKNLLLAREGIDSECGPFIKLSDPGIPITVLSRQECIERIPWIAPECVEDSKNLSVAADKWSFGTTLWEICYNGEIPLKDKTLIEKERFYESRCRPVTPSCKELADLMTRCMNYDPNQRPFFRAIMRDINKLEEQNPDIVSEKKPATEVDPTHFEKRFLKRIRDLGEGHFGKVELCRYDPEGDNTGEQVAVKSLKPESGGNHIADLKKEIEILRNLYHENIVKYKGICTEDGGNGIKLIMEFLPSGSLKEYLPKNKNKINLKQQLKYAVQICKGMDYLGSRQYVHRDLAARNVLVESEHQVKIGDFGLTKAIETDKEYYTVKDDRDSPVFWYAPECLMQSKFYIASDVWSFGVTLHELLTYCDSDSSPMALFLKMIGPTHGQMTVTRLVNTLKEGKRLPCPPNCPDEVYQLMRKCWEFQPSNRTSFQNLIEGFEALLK
metric: IC50 (µM)

Cn1cc(-c2cc3c(N4CC5CCC(C4)N5C(=O)[C@@H]4CC4(F)F)ccnc3[nH]2)cn1: 0.018
COc1cc(-c2cc3c(N4CC5CCC(C4)N5C(=O)[C@@H]4C[C@H]4F)ccnc3[nH]2)c(F)cn1: 0.076

====

system: Non-receptor tyrosine-protein kinase TYK2 (Homo sapiens)
Sequence (P29597 whole entry): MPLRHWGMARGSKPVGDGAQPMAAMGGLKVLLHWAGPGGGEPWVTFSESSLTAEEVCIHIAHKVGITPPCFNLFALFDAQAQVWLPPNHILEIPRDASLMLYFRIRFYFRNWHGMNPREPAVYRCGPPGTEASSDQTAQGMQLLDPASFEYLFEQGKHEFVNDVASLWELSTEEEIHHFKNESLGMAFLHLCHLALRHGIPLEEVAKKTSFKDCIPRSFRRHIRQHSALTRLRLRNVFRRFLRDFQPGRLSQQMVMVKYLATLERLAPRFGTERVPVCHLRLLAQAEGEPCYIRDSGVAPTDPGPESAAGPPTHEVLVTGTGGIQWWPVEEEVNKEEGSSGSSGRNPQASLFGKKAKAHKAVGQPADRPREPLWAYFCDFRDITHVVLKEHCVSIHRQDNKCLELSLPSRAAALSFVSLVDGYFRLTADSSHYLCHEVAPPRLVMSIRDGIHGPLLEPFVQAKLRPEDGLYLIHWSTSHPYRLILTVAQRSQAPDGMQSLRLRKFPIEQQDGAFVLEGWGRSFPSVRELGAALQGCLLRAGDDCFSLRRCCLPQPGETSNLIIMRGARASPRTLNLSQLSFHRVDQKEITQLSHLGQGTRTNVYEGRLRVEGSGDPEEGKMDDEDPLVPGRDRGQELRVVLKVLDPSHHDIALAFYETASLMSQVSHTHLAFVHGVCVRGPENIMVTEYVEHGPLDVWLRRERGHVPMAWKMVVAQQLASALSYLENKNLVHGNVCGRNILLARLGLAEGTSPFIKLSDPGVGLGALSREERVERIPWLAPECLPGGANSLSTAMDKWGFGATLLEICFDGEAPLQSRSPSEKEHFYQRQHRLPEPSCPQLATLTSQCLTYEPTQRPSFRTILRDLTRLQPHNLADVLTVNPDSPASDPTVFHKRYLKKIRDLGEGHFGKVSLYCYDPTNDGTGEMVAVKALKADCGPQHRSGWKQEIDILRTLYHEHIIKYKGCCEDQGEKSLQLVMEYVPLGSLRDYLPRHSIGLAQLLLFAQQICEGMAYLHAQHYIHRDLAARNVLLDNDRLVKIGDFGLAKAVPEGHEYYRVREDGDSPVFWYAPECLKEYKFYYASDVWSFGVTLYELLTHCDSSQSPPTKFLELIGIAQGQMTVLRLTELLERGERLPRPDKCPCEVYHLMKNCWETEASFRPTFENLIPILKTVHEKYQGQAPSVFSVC
pIC50: −log10 of the molar value.
metric: pIC50

Cn1cc(-c2cc3c(N4CC5CCC(C4)N5C(=O)[C@@H]4CC4(F)F)ccnc3[nH]2)cn1: 9.70
COc1cc(-c2cc3c(N4CC5CCC(C4)N5C(=O)[C@@H]4C[C@H]4F)ccnc3[nH]2)c(F)cn1: 8.29

====

System: Tyrosine-protein kinase JAK2 (Homo sapiens) | Read-out: pIC50
Sequence (O60674 whole entry): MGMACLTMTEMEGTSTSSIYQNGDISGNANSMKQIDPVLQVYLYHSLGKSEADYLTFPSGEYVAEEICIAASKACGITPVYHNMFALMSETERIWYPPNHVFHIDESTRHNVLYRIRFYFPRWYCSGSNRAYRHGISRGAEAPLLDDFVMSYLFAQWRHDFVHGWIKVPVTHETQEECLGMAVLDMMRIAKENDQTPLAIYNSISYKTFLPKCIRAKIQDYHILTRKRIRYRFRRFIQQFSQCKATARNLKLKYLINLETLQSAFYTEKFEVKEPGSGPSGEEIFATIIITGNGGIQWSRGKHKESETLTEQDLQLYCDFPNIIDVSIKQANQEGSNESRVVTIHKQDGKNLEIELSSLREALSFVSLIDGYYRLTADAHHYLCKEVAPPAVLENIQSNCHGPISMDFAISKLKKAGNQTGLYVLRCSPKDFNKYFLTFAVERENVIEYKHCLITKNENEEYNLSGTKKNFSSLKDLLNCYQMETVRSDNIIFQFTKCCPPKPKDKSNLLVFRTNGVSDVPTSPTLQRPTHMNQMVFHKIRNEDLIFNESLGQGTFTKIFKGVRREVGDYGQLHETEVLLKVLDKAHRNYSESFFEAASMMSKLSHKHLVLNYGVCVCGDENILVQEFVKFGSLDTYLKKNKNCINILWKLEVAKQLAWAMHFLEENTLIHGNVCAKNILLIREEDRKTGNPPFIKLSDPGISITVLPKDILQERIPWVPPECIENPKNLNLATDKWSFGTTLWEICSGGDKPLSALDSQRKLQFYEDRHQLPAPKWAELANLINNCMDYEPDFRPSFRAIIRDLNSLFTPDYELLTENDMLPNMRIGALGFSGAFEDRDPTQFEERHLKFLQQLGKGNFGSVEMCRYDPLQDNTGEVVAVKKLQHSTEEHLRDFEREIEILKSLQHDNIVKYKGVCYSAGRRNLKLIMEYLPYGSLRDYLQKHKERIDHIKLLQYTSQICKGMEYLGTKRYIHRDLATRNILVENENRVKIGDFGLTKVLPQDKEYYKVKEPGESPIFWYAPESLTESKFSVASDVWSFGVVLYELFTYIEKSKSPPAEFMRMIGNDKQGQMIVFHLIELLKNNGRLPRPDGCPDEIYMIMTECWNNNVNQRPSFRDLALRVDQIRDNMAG
pIC50: −log10 of the molar value.
metric: pIC50

COc1cc(-c2cc3c(N4CC5CCC(C4)N5C(=O)[C@@H]4C[C@H]4F)ccnc3[nH]2)c(F)cn1: 7.28
Cn1cc(-c2cc3c(N4CC5CCC(C4)N5C(=O)[C@@H]4CC4(F)F)ccnc3[nH]2)cn1: 8.10
